Tested System: Ectonucleotide pyrophosphatase/phosphodiesterase family member 1 (Homo sapiens) (UniProt P22413)
Sequence (P22413 whole entry): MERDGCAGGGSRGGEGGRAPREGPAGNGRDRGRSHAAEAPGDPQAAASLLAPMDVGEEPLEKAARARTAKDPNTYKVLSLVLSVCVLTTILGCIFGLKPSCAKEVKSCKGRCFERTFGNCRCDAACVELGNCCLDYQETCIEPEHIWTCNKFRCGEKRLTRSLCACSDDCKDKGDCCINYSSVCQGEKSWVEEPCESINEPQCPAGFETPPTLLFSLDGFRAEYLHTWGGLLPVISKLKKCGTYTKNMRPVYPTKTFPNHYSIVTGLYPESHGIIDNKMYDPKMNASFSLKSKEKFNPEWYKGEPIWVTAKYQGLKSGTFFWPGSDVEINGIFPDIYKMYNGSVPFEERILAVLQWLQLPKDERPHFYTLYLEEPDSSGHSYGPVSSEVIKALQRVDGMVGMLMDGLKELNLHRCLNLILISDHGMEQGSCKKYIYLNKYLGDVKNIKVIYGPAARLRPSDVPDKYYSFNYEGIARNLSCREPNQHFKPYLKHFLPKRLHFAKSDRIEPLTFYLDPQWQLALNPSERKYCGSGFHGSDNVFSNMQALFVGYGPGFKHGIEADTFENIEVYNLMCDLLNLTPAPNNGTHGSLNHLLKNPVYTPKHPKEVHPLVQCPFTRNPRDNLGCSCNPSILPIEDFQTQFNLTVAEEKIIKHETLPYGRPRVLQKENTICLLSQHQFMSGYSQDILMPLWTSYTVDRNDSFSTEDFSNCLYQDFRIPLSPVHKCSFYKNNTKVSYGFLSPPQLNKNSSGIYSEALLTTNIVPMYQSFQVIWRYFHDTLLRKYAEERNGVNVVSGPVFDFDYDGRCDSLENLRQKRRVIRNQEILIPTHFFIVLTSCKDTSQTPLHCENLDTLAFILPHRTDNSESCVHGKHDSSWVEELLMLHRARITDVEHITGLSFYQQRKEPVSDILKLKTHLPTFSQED
Test Name: Inhibition of NPP1 in human HTB-85 cells assessed as production of p-nitrophenol using pnp-TMP at 100 uM measured after 20 mins by spectrophotometry
Assay type: cell-based
Result Type: inhibition (%)

1. B[P@](=O)(OC[C@H]1O[C@@H](n2cnc3c(N)nc(SC)nc32)[C@H](O)[C@@H]1O)OP(=O)(O)CP(=O)(O)O :: 90
2. B[P@](=O)(OC[C@H]1O[C@@H](n2cnc3c(N)ncnc32)[C@H](O)[C@@H]1O)OP(=O)(O)CP(=O)(O)O :: 41
3. B[P@@](=O)(OC[C@H]1O[C@@H](n2cnc3c(N)nc(SC)nc32)[C@H](O)[C@@H]1O)OP(=O)(O)C(Cl)(Cl)P(=O)(O)O :: 90
4. B[P@](=O)(OC[C@H]1O[C@@H](n2cnc3c(N)nc(SC)nc32)[C@H](O)[C@@H]1O)OP(=O)(O)C(Cl)(Cl)P(=O)(O)O :: 41
5. CSc1nc(N)c2ncn([C@@H]3O[C@H](COP(=O)(O)OP(=O)(O)C(F)(F)P(=O)(O)O)[C@@H](O)[C@H]3O)c2n1 :: 41
6. B[P@](=O)(OC[C@H]1O[C@@H](n2cnc3c(N)nc(SC)nc32)[C@H](O)[C@@H]1O)OP(=O)(O)C(F)(F)P(=O)(O)O :: 41
7. CSc1nc(N)c2ncn([C@@H]3O[C@H](COP(=O)(O)C(F)(F)P(=O)(O)O)[C@@H](O)[C@H]3O)c2n1 :: 41
8. B[P@@](=O)(OC[C@H]1O[C@@H](n2cnc3c(N)ncnc32)[C@H](O)[C@@H]1O)OP(=O)(O)CP(=O)(O)O :: 90
9. B[P@](=O)(OC[C@H]1O[C@@H](n2cnc3c(N)ncnc32)[C@H](O)[C@@H]1O)OP(=O)(O)C(Cl)(Cl)P(=O)(O)O :: 41
